Experiment: in vitro
Details: human, liver microsomes
Listed compounds paired with reported microsomal CLint
Form entry: value (µL/min/mg) — number only.

compound=CCC(CC)NC(=O)c1cnn(-c2ccccc2Cl)c1NS(=O)(=O)c1ccc(C)cc1 recorded_measurement=72
compound=N#C[C@]1(NC(=O)[C@@H](N)Cc2cccs2)C[C@H]1c1ccccc1 recorded_measurement=41
compound=O=C(NS(=O)(=O)c1cccc(Cl)c1)N1CCC(N2CCC(Oc3ccc(Cl)c(Cl)c3)CC2)CC1 recorded_measurement=6
compound="NC(=O)NC(=O)C(Nc1ccc2c(c1)CCC2)c1ccccc1 (stereo not given)" recorded_measurement=27.5
compound="CC(C)CNc1nc(N2CCN(CC3CCCOC3)CC2)ncc1C(=O)NCc1ccccc1 (stereo not given)" recorded_measurement=95.5

Query: Look up microsomal CLint for this compound: `COc1ccc(C=NN=Cc2ccc(OC)c(OC)c2)cc1OC`
Reply: 19

Query: Look up microsomal CLint for this compound: `CC(=O)Nc1ccc(O)cc1OC[C@@H](O)CN1CCC2(CC1)Cc1cc(Cl)ccc1O2`
Reply: 8

Query: Look up microsomal CLint for this compound: `Cc1cc([C@H](O)[C@](C)(OCc2ccc(-c3ccccc3)cc2)C(=O)NO)no1`
Reply: 15.8

From: ChEMBL document CHEMBL3301361
